These entries and their values trace back to ChEMBL document CHEMBL5543061.

PROTOCOL_SUMMARY: Elimination half life in rat at 2 mg/kg, iv
Assay type: ADME, organism-based
TEST_CONDITIONS: in vivo, read-out: beta t1/2 (converted)
METRIC_NAME: half-life (h)
Answer in h, number only, no unit symbol.

// field: half-life; key: `COc1ccc(CCc2cc(OC)c(OC)c(OC)c2)cc1O` ; value = 1.5

====

Tested on: MCF7
PROTOCOL_SUMMARY: Cytotoxicity against human MCF7 cells assessed as reduction in cell viability incubated for 72 hrs by MTT assay
Type: functional, cell-based
TEST_CONDITIONS: MCF7, 72 h
METRIC_NAME: pIC50
In textbook form, pIC50 equals minus log to base ten of the concentration in mol/L.

The molecule listed as `COc1cc(CCc2ccc(OC(F)F)c(N)c2)cc(OC)c1OC` shows pIC50 equal to 6.89
